Please respond with reported Ki for every item in the list.
Biological target: β-catenin/BCL9 PPI (Homo sapiens, UniProt P35222)
Construct: Wild-type full-length β-catenin were cloned into a pET-28b vector carrying a C-terminal 6×histidine; made in house; host or cells: Escherichia coli BL21 DE3 (β-catenin); BCL9 peptide chemically synthesized
Sequence (P35222 whole entry): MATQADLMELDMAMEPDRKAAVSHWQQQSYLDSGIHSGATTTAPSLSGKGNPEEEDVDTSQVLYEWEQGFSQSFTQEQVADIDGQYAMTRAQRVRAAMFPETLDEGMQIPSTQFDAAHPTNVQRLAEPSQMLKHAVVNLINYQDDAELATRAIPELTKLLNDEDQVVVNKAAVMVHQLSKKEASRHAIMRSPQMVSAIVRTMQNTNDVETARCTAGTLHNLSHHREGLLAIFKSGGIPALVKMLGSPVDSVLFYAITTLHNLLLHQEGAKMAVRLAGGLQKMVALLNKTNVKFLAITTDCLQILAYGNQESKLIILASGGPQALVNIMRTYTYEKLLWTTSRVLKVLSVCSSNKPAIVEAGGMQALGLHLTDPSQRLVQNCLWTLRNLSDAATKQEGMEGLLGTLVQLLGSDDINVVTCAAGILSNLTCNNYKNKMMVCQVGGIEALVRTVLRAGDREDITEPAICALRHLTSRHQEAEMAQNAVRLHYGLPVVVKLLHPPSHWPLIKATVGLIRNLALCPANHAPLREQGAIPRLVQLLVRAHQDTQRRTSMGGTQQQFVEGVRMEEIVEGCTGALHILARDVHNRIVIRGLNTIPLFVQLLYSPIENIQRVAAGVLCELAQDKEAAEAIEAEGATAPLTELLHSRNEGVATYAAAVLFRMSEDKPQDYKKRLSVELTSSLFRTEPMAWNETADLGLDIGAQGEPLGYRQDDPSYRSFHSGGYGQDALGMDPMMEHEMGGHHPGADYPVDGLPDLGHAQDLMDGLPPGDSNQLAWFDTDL
Assay: AlphaScreen competitive inhibition assay of the β-catenin/BCL9 PPI
Assay type: binding
Conditions: Example 1 compounds; experiment 4; mean ± SD, triplicate; Ki derived from IC50 (Nikolovska-Coleska method); read-out: Ki (μM ± SD) experiment 4
Protocol: AlphaScreen competitive inhibition assays. […] For the β-catenin/BCL9 assay, 5 nM of biotinylated BCL9 and 40 nM of His6-tagged β-catenin were incubated in assay buffer at 4° C. for 30 min. […] The IC50 value was determined by nonlinear least-square analysis of GraphPad Prism 5.0. […] The results were expressed as mean±standard deviation.
Structures can show the parent of a compound that is named as a salt.
All answers are understood in µM, so give the number only.

Sample CC(=O)Nc1cc(F)cc(C(=O)N2CCN(C(=O)c3ccc(O[C@H]4CCNC4)c(C4CCCCC4)c3)C(C(=O)N(C)Cc3ccccc3)C2)c1 (stereo partly shown) [Compound 29, trifluoroacetate] — what was its Ki? 740

Sample CCN(C)C(=O)C1CN(C(=O)c2cc(F)cc(NC(C)=O)c2)CCN1C(=O)c1ccc(O[C@H]2CCNC2)c(C2CCCCC2)c1 (stereo partly shown) [Compound 20, trifluoroacetate] — what was its Ki? 170

Sample CC(=O)Nc1cc(F)cc(C(=O)N2CCN(C(=O)c3ccc(O[C@H]4CCNC4)c(C4CCCCC4)c3)C(C(=O)NC(C)C)C2)c1 (stereo partly shown) [Compound 21, trifluoroacetate] — what was its Ki? 700

* * *

molecular target: β-catenin/BCL9 PPI (Homo sapiens, UniProt P35222); construct: Wild-type full-length β-catenin were cloned into a pET-28b vector carrying a C-terminal 6×histidine; made in house; host or cells: Escherichia coli BL21 DE3 (β-catenin); BCL9 peptide chemically synthesized; test: AlphaScreen competitive inhibition assay of the β-catenin/BCL9 PPI; assay type: binding; settings: Example 1 compounds; experiment 4; mean ± SD, triplicate; Ki derived from IC50 (Nikolovska-Coleska method); read-out: Ki (μM ± SD) experiment 4
Counter-ions that a name gives are not always drawn.
Experimental Readout: Ki (µM)
All answers are understood in µM, so give the number only.

Sample CC(=O)Nc1cc(F)cc(C(=O)N2CCN(C(=O)c3ccc(O[C@H]4CCNC4)c(C4CCCCC4)c3)C(C(=O)NCc3ccccc3)C2)c1 (stereo partly drawn) [Compound 28] — what was its Ki? 600

Sample CCNC(=O)C1CN(C(=O)c2cc(F)cc(NC(C)=O)c2)CCN1C(=O)c1ccc(O[C@H]2CCNC2)c(C2CCCCC2)c1 (stereo partly drawn) [Compound 19, trifluoroacetate] — what was its Ki? 240

Sample CC(=O)Nc1cc(F)cc(C(=O)N2CCN(C(=O)c3ccc(O[C@H]4CCNC4)c(C4CCCCC4)c3)C(C(=O)N(C)C)C2)c1 (stereo partly drawn) [Compound 18, trifluoroacetate] — what was its Ki? 150

Sample CNC(=O)C1CN(C(=O)c2cc(F)cc(NC(C)=O)c2)CCN1C(=O)c1ccc(O[C@H]2CCNC2)c(C2CCCCC2)c1 (stereo partly drawn) [Compound 17, trifluoroacetate] — what was its Ki? 140

* * *

Molecular target: β-catenin/BCL9 PPI (Homo sapiens, UniProt P35222)
Construct: Wild-type full-length β-catenin were cloned into a pET-28b vector carrying a C-terminal 6×histidine; made in house; host or cells: Escherichia coli BL21 DE3 (β-catenin); BCL9 peptide chemically synthesized
Assay: AlphaScreen competitive inhibition assay of the β-catenin/BCL9 PPI
Type: binding
Conditions: Example 2 compounds; experiment 1; mean ± SD, triplicate; Ki derived from IC50 (Nikolovska-Coleska method); read-out: Ki (μM ± SD) experiment 1
Experimental: AlphaScreen competitive inhibition assays. […] For the β-catenin/BCL9 assay, 5 nM of biotinylated BCL9 and 40 nM of His6-tagged β-catenin were incubated in assay buffer at 4° C. for 30 min. […] The IC50 value was determined by nonlinear least-square analysis of GraphPad Prism 5.0. […] The results were expressed as mean±standard deviation.
Counter-ions that a name gives are not always drawn.
Experimental Readout: Ki (µM)
All answers are understood in µM, so give the number only.

I'm curious: which Ki was measured for NCCCC(=O)Nc1cc(F)cc(OC2CCN(C(=O)c3ccc(OC4CCNC4)c(C4CCCCC4)c3)CC2)c1 (centres unmarked) [Compound 6, dihydrochloride] tested on β-catenin/BCL9 PPI (Homo sapiens, UniProt P35222)? 56.9

I'm curious: which Ki was measured for NCCC(=O)NCc1cc(F)cc(OC2CCN(C(=O)c3ccc(O[C@H]4CCNC4)c(C4CCCCC4)c3)CC2)c1 [Compound 7, dihydrochloride] tested on β-catenin/BCL9 PPI (Homo sapiens, UniProt P35222)? 84.7

I'm curious: which Ki was measured for CC(C)(CN)C(=O)NCc1cc(F)cc(OC2CCN(C(=O)c3ccc(O[C@H]4CCNC4)c(C4CCCCC4)c3)CC2)c1 [Compound 8, dihydrochloride] tested on β-catenin/BCL9 PPI (Homo sapiens, UniProt P35222)? 162

I'm curious: which Ki was measured for NCCC(=O)Nc1cc(F)cc(OC2CCN(C(=O)c3ccc(OC4CCNC4)c(C4CCCCC4)c3)CC2)c1 (centres unmarked) [Compound 5, dihydrochloride] tested on β-catenin/BCL9 PPI (Homo sapiens, UniProt P35222)? 24.4

I'm curious: which Ki was measured for CN(C)Cc1cn(Cc2cc(F)cc(OC3CCN(C(=O)c4ccc(O[C@H]5CCNC5)c(C5CCCCC5)c4)CC3)c2)nn1 [Compound 4, dihydrochloride] tested on β-catenin/BCL9 PPI (Homo sapiens, UniProt P35222)? 41.4

I'm curious: which Ki was measured for O=C(c1ccc(O[C@H]2CCNC2)c(C2CCCCC2)c1)N1CCC(Oc2cc(F)cc(N3CCNCC3)c2)CC1 [Compound 1, dihydrochloride] tested on β-catenin/BCL9 PPI (Homo sapiens, UniProt P35222)? 12.3

I'm curious: which Ki was measured for NCc1cn(Cc2cc(F)cc(OC3CCN(C(=O)c4ccc(O[C@H]5CCNC5)c(C5CCCCC5)c4)CC3)c2)nn1 [Compound 3, dihydrochloride] tested on β-catenin/BCL9 PPI (Homo sapiens, UniProt P35222)? 132

I'm curious: which Ki was measured for O=C(c1ccc(O[C@H]2CCNC2)c(C2CCCCC2)c1)N1CCC(Oc2cc(F)cc(N3CCNCC3=O)c2)CC1 [Compound 2, dihydrochloride] tested on β-catenin/BCL9 PPI (Homo sapiens, UniProt P35222)? 496

* * *

target: β-catenin/BCL9 PPI (Homo sapiens, UniProt P35222); construct: Wild-type full-length β-catenin were cloned into a pET-28b vector carrying a C-terminal 6×histidine; made in house; host or cells: Escherichia coli BL21 DE3 (β-catenin); BCL9 peptide chemically synthesized; experiment: AlphaScreen competitive inhibition assay of the β-catenin/BCL9 PPI; assay type: binding; details: Example 1 compounds; experiment 4; mean ± SD, triplicate; Ki derived from IC50 (Nikolovska-Coleska method); read-out: Ki (μM ± SD) experiment 4
Where a name gives a salt, the structure may show the parent alone.
Please respond with reported Ki for every item in the list.
All answers are understood in µM, so give the number only.

I'm curious: which Ki was measured for CC(=O)Nc1cc(F)cc(C(=O)N2CCN(C(=O)c3ccc(O[C@H]4CCNC4)c(C4CCCCC4)c3)C(C(=O)Nc3ccccc3)C2)c1 (stereo partly drawn) [Compound 27, trifluoroacetate] tested on β-catenin/BCL9 PPI (Homo sapiens, UniProt P35222)? 580

I'm curious: which Ki was measured for CC(=O)Nc1cc(F)cc(C(=O)N2CCN(C(=O)c3ccc(O[C@H]4CCNC4)c(C4CCCCC4)c3)C(C(=O)NCCC(C)C)C2)c1 (stereo partly drawn) [Compound 24, trifluoroacetate] tested on β-catenin/BCL9 PPI (Homo sapiens, UniProt P35222)? 540

I'm curious: which Ki was measured for CC(=O)Nc1cc(F)cc(C(=O)N2CCN(C(=O)c3ccc(O[C@H]4CCNC4)c(C4CCCCC4)c3)C(C(=O)NCC3CCCCC3)C2)c1 (stereo partly drawn) tested on β-catenin/BCL9 PPI (Homo sapiens, UniProt P35222)? 770

* * *

target: β-catenin/BCL9 PPI (Homo sapiens); construct: Wild-type full-length β-catenin were cloned into a pET-28b vector carrying a C-terminal 6×histidine; made in house; host or cells: Escherichia coli BL21 DE3 (β-catenin); BCL9 peptide chemically synthesized; assay: AlphaScreen competitive inhibition assay of the β-catenin/BCL9 PPI; format: binding; conditions: Example 1 compounds; experiment 2; mean ± SD, triplicate; Ki derived from IC50 (Nikolovska-Coleska method); read-out: Ki (μM ± SD) experiment 2
Please respond with reported Ki for every item in the list.
All answers are understood in µM, so give the number only.

Sample NCc1cn(-c2cc(F)cc(C(=O)N3CCN(C(=O)c4ccc(O[C@H]5CCNC5)c(C5CCCCC5)c4)CC3)c2)nn1 [Compound 30, ditrifluoroacetate] — what was its Ki? 560

Sample NCc1cn(-c2cc(F)cc(C(=O)N3CCN(C(=O)c4ccc(O[C@H]5CCNC5)c(C5CCC(C(F)(F)F)CC5)c4)CC3)c2)nn1 (some centres unmarked) [Compound 31, ditrifluoroacetate] — what was its Ki? 610
